assay: Plasma concentration in rat SNL neuropathic pain model at 10 mg/kg, po after 3 hrs; type: ADME, organism-based; set-up: dose 10 mg/kg, route oral
MEASURE_NAME: concentration at 3 h (nM)
Report as a plain number; the unit nM is understood.

# concentration at 3 h of CS(=O)(=O)c1ccc(F)cc1C(=O)N1CCC(N(C2CC2)S(=O)(=O)c2cccc(C(F)(F)F)c2)CC1 = 1260

====

biological target: Voltage-dependent L-type calcium channel subunit alpha-1C (Homo sapiens); test: Inhibition of Cav1.2 assessed as inhibition of calcium flux by cell based FLIPR assay
Sequence (Q13936 whole entry): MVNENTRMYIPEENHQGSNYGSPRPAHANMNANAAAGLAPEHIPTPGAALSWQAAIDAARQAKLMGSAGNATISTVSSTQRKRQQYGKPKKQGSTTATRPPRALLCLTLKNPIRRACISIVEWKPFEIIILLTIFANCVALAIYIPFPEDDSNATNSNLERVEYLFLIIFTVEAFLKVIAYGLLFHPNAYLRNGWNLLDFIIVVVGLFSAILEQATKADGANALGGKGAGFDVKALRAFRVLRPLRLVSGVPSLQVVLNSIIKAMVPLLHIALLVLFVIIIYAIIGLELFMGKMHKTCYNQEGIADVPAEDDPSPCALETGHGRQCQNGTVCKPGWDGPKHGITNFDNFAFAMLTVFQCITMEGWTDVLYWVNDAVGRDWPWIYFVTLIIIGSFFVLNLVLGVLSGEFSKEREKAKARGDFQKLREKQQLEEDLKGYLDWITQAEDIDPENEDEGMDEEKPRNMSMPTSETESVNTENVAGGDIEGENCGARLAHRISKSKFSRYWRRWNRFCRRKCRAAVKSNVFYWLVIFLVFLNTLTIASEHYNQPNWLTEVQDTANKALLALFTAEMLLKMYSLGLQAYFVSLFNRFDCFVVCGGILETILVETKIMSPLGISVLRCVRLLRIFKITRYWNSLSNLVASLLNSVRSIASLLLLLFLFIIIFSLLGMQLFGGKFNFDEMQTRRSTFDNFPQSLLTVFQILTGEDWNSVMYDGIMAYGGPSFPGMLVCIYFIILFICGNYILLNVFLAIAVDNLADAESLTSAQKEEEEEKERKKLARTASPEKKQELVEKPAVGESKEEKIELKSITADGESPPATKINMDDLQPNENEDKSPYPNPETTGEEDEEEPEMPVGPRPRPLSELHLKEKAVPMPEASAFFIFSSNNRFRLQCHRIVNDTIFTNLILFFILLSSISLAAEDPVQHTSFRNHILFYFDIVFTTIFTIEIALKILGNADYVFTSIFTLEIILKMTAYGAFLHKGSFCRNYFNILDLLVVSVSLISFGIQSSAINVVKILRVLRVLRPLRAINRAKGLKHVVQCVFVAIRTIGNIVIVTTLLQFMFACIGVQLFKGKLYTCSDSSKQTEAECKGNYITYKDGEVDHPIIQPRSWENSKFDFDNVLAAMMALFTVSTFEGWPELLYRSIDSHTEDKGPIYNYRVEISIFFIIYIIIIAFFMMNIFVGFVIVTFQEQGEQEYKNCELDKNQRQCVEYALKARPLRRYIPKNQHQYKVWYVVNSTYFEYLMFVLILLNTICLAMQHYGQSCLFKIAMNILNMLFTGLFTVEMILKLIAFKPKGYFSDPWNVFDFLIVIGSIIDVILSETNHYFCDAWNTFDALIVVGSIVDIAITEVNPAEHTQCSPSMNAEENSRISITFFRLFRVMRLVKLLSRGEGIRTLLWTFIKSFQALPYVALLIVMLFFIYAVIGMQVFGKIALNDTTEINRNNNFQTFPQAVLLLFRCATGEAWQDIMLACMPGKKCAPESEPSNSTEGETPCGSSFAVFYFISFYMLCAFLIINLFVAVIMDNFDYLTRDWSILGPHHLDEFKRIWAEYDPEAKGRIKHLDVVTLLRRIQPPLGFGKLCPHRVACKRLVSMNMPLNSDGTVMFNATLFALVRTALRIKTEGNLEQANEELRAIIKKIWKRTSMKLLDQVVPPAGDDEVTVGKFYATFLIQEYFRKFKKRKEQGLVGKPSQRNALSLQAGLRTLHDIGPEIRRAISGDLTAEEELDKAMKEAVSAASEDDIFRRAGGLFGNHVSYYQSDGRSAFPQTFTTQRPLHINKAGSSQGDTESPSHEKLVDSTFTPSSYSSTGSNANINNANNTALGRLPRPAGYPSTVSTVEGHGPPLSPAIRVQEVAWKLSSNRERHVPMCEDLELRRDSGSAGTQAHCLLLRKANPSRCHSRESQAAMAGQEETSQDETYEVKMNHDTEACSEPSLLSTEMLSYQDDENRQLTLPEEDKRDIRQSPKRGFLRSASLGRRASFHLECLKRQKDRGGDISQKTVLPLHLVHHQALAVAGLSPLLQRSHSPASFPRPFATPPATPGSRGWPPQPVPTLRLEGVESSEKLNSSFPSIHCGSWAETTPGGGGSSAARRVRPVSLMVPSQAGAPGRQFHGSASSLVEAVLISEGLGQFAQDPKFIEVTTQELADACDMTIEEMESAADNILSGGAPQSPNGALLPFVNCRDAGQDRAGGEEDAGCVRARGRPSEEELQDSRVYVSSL
MEASURE_NAME: pIC50
Scale explanation: pIC50 corresponds to minus log10 of a concentration expressed in moles per litre.

For CCCN(C1CCN(Cc2c(OC)cccc2OC)CC1)S(=O)(=O)c1cccc(C(F)(F)F)c1 on Voltage-dependent L-type calcium channel subunit alpha-1C (Homo sapiens), measured pIC50 was 5.49

These entries and their values trace back to ChEMBL document CHEMBL2176883.
